experimental-system: Protein kinase C theta type (Homo sapiens)
assay-conditions: at 10 µM
residual activity values by entry
assay-readout: residual activity (%)

{"compound": "COc1cc2nccc(Oc3ccc(NC(=S)NC(=O)c4ccccc4C)cc3)c2cc1OC", "quantitative-result": 97}
{"compound": "O=C1Nc2ccc(Cl)cc2/C1=C/c1cc(Cl)c(O)c(Cl)c1", "quantitative-result": 76}
{"compound": "O=C1NC(=O)C(c2cn(CCCn3ccnc3)c3ccccc23)=C1Nc1ccccc1", "quantitative-result": 2}
{"compound": "CC(C)[C@H](CO)Nc1nc(Nc2cc(N)cc(Cl)c2)c2ncn(C(C)C)c2n1", "quantitative-result": 23}
{"compound": "CCCCc1c(-c2ccc(OC)cc2)[nH]c2nccnc12", "quantitative-result": 83}
{"compound": "Nc1nc(Nc2ccc(S(N)(=O)=O)cc2)nn1C(=O)c1c(F)cccc1F", "quantitative-result": 20}
{"compound": "O=S(=O)(NCCNC/C=C/c1ccc(Br)cc1)c1cccc2cnccc12", "quantitative-result": 17}
{"compound": "CCCC(=O)Oc1ccc2[nH]c(C(=O)c3cc4ccccc4[nH]3)cc2c1", "quantitative-result": 75}
{"compound": "O=c1c(-c2ccc(F)cc2)c(-c2ccncc2)[nH]n1-c1ccc(Cl)cc1", "quantitative-result": 71}
{"compound": "O=C1Nc2ccccc2/C1=C\\c1c(Cl)[nH]c2ccccc12", "quantitative-result": 71}
{"compound": "O=C1NC(=O)C(c2c[nH]c3ccccc23)=C1c1c[nH]c2ccccc12", "quantitative-result": 2}
{"compound": "O=c1cc(N2CCOCC2)oc2c1ccc1ccccc12", "quantitative-result": 105}
{"compound": "Oc1cccc(-c2nc(N3CCOCC3)c3oc4ncccc4c3n2)c1", "quantitative-result": 86}
{"compound": "O=C1NC(=O)C(c2cn(CCCO)c3ncccc23)=C1c1cnccn1", "quantitative-result": 77}
{"compound": "O=c1cc(N2CCNCC2)oc2c(-c3ccccc3)cccc12", "quantitative-result": 94}
{"compound": "O=C(O)/C=C/c1cc(Br)c(Br)c(Br)c1Br", "quantitative-result": 90}
{"compound": "CSc1nc(-c2ccc(F)cc2)c(-c2ccnc(NC(C)c3ccccc3)c2)[nH]1 (stereo not given)", "quantitative-result": 72}
{"compound": "N#C/C(=C1/Nc2ccccc2S1)c1ccnc(NCCc2cccnc2)n1", "quantitative-result": 72}
{"compound": "c1ccc(-c2cnc(Nc3ccc(OCCN4CCCC4)cc3)s2)cc1", "quantitative-result": 102}
{"compound": "COc1ccc(Cl)cc1NC(=O)Nc1cc(C)nc2ccccc12", "quantitative-result": 92}
